The reader will find reported kon values listed item by item below.
- measured on: T1, cyno IL-33 N-His (cynomolgus monkey)
- T1 chain: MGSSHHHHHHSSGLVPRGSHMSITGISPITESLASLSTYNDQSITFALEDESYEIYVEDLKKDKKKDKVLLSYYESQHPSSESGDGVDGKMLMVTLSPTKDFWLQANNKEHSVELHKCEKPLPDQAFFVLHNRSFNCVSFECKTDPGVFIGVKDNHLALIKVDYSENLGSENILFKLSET
- test name: SPR Biacore T200, 37 C
- Description: The binding kinetics of the anti-IL-33 antibody 10C12.38.H6.87Y.58I IgG4 and each anti-IL-33 antibody listed in Table 5 (RG1-RG20) to IL-33 were measured using surface plasmon resonance (SPR) on a BIACORE® T200 instrument (GE Healthcare). […] Antibody binding was measured to human IL-33 (R&D systems, #3625-IL-010/CF) and cyno IL-33 N-His (SEQ ID NO: 317) (Genentech, Inc.). […] After injection, disassociation of the ligand from the antibody was monitored for 10 min in running buffer. […]
result type: kon

binder	result
H1M9559N (antibody, IgG1, V domains shown, also called RG1) VH: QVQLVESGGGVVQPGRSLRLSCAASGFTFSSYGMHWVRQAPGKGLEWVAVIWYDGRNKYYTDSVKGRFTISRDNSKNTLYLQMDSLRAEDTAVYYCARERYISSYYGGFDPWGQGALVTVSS VL: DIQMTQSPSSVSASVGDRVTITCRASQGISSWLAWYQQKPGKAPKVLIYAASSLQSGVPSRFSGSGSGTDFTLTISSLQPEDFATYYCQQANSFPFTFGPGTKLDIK	232000 M⁻¹ s⁻¹
H1M9566N (antibody, IgG1, V domains shown, also called RG2) VH: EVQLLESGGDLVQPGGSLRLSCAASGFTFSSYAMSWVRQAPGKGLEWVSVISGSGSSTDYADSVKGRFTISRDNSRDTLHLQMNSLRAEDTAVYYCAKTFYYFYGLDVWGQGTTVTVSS VL: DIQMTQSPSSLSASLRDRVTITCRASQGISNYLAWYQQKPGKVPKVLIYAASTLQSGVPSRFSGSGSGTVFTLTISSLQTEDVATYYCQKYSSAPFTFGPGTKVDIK	185000 M⁻¹ s⁻¹
H4H9666P (antibody, V domains shown) VH: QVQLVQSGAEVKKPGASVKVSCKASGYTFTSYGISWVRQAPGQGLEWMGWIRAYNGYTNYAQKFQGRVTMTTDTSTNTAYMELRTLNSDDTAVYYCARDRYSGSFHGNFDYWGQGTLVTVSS VL: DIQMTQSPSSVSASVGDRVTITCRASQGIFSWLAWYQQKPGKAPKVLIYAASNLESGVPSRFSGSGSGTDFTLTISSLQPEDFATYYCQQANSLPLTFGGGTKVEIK	293000 M⁻¹ s⁻¹
